experiment: E. coli acrAB mutant growth effects, primary screen, E. coli filamentation inducers, strain DRC39, OD650, 48 h (AID 1179);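 note: screen aims at cell division blockers that make cells filament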; conditions: E. coli DRC39 delta-acrAB growth, higher = more signal, called active from +8 up or from −8 down
# class assignment by measured z-score: low-valued = under -0.5, mid-valued = from -0.5 up to 0.3, high-valued = 0.3 and over

Answered cases to consult:
>>> answer_label("C[N+](C)(C)CCCCNC(=O)[C@H]1C[C@H]2C(=O)N3CCC[C@H]3C(=O)N2[C@H]1c1cccc(OCCO)c1")
"high-valued"
>>> answer_label("CN(C)CCCC[C@@H]1NC(=O)[C@@H]2C[C@H](C(=O)NCCCCCCN)[C@H](c3cccc(OCCO)c3)N2C1=O")
"low-valued"
>>> answer_label("O=C1C[C@@](C(=O)NC2CC2)(c2ccc([N+](=O)[O-])cc2)[C@@H](c2ccc(CO)cc2I)N1C1CCCCC1")
"low-valued"
>>> answer_label("C[N+](C)(C)CCCCCCNC(=O)[C@@H]1C[C@@H]2C(=O)N[C@@H](Cc3ccccc3)C(=O)N2[C@@H]1c1cccc(OCCO)c1")
"high-valued"
>>> answer_label("C=CC[C@@]1(C(=O)NCCN2CCOCC2)N=C(c2ccc(OCCCO)cc2)O[C@@H]1c1ccccc1N=[N+]=[N-]")
"mid-valued"

Input line: Record CC(=O)n1cc(C(O)C2C=CC3C(=O)N(c4ccccc4)C(=O)C3N2Nc2ccc([N+](=O)[O-])cc2)c2ccccc21 (centres undefined) — which class?
Output line: low-valued

Input line: Record COc1ccc(CCNC(=O)[C@@]2(C)c3ccccc3C(=O)N(C(C)C)[C@H]2c2ccc(CO)cc2)cc1 — which class?
Output line: mid-valued

Input line: Record COc1ccc([Si](C)(C)[C@@H]2[C@@H](CC(=O)N3CCC[C@H]3CO)O[C@]3(C(=O)N(c4ccccc4)c4ccccc43)[C@H]2C)cc1 — which class?
Output line: mid-valued

Input line: Record CCOC(=O)C[C@H]1[C@H](OC(=O)c2ccc(C(=O)c3ccccc3)cc2)[C@@H](NC(=O)c2ccc3ccccc3c2)c2cc(OCCCO)ccc2N1C(=O)Cc1ccc(OC)cc1 — which class?
Output line: high-valued

* * *

experiment: basal S. cerevisiae growth modulation, no modifier, primary screen, OD600, strain BY4716, 24 h, basal condition (AID 1173); conditions: OD600, 24 h, higher = more signal, called active from +8 up or from −8 down
Listing of recorded z-score by entry.
Keep it simple and answer with nothing but the number.

>>> test_value("COCCCNC(=O)[C@@H]1c2ccccc2C(=O)N(Cc2ccccc2Cl)[C@H]1c1ccc(CO)cc1")
-0.259

Input line: Look up z-score: COC(=O)[C@@]1(Cc2ccc(OC)cc2)[C@H]2c3cc(C(=O)N4CCCC4)n(Cc4ccc(O)c(OC)c4)c3C[C@H]2CN1C(=O)c1ccccc1
Output line: 1.19

Input line: Look up z-score: CC(C)N1C(=O)C[C@@](C(=O)NCC(F)(F)F)(c2ccc([N+](=O)[O-])cc2)[C@H]1c1ccc(CO)cc1
Output line: -0.957

Input line: Look up z-score: [N-]=[N+]=NCc1ccccc1[C@@H]1OC(c2ccc(OCCCO)cc2)=N[C@]1(Cc1ccccc1)C(=O)NCC(O)CO (some centres not stated)
Output line: -0.293

Input line: Look up z-score: CO[C@H]1O[C@H](CO)[C@@H](OC(=O)Nc2ccc(Oc3ccccc3)cc2)[C@H](OC(=O)Nc2ccc3c(c2)OCO3)[C@H]1OC(=O)Nc1ccc2c(c1)OCO2
Output line: 0.759

Input line: Look up z-score: C=CCOC(=O)[C@H]1[C@@H]2C(=O)O[C@@H](c3ccccc3)[C@@H](c3ccccc3)N2[C@@H](c2ccc(OCCOC(=O)[C@@H]3C[C@@H]4C(=O)N[C@@H](CCCCNC(C)=O)C(=O)N4[C@@H]3c3ccc(O)cc3)cc2)[C@]12C(=O)Nc1ccccc12
Output line: 0.857

Input line: Look up z-score: CCOC(=O)C[C@H]1[C@H](OC(=O)c2ccc(C(=O)c3ccccc3)cc2)[C@@H](NC(=O)c2ccc3ccccc3c2)c2cc(OCCCO)ccc2N1C(=O)Cc1ccc(OC)cc1
Output line: -0.291

* * *

molecular target: Luciferin 4-monooxygenase (Photinus pyralis) (UniProt P08659); experiment: firefly luciferase enzyme inhibitors, primary screen, biochemical, luminescence, purified enzyme, 2006 set (AID 1141); conditions: SteadyGlo luminescence, 30 min, higher = more signal, called active from +8 up or from −8 down;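 note: cell-free assay with purified firefly luciferase at 100 ng per well in PBS; test concentration not given here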
Sequence (P08659 whole entry, looked up): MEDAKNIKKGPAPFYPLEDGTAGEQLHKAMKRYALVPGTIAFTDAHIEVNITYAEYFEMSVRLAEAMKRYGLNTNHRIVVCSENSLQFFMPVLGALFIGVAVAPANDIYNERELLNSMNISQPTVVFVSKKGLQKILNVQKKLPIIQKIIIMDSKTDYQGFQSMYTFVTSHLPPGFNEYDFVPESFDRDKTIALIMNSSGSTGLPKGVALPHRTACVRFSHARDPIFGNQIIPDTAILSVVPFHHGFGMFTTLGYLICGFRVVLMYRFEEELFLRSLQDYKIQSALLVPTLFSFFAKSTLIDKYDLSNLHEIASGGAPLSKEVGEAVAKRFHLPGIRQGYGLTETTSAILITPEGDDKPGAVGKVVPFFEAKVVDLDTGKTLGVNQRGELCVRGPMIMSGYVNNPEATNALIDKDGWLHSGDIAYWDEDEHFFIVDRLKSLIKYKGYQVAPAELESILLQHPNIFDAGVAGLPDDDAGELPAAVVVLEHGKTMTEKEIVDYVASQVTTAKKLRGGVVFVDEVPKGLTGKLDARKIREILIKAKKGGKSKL
Listing of recorded z-score by entry.
Keep it simple and answer with nothing but the number.

>>> test_value("C=C(CCCC)/C(=C/C[C@@H](OC(C)=O)c1ccc(OCCO)cc1)c1cnc2ccccc2c1")
-1.81
>>> test_value("COc1ccc([Si](C)(C)[C@@H]2[C@@H](CCO)O[C@]3(C(=O)N(Cc4ccc(N(C=O)c5ccccc5)cc4)c4ccccc43)[C@H]2C)cc1")
0.0379
>>> test_value("COCCOC(=O)N1C(=O)[C@@]2(c3cc(C#CCNC(N)=O)ccc31)[C@H](C(=O)N1CCN(c3ncccn3)CC1)[C@H]1C(=O)O[C@H](c3ccccc3)[C@H](c3ccccc3)N1[C@@H]2c1ccc(OCCO)cc1")
-1.47
>>> test_value("COc1cc(C(O)C2C=CC3C(=O)NC(=O)C3N2Nc2ccccn2)cc(OC)c1OC (configuration not stated)")
-0.0958
>>> test_value("C=C(COC)/C(=C/C[C@@H](OC(=O)c1ccncc1)c1ccc(CO)o1)c1cc(C(=O)OC)ccc1OC")
-1.83

Input line: Value wanted: z-score (Luciferin 4-monooxygenase (Photinus pyralis) (UniProt P08659)) of entry CC(C)NC(=O)[C@@]1(C)c2ccccc2C(=O)N(Cc2cc(C(F)(F)F)cc(C(F)(F)F)c2)[C@H]1c1ccc(CO)cc1
Output line: -0.734

Input line: Value wanted: z-score (Luciferin 4-monooxygenase (Photinus pyralis) (UniProt P08659)) of entry O=C(CS)NCCCCCCNC(=O)[C@@H]1C[C@@H]2C(=O)NCC(=O)N2[C@@H]1c1cccc(OCCO)c1
Output line: -1.02

* * *

experiment: A549 cell viability effects, profiling panel, calcein-AM fluorescence, 48 h, basal (AID 1162); details: higher = more signal; note: test concentration not given here
Assign criterion met whenever z-score does not fall below 1; assign criterion not met whenever it does.

Answered cases to consult:
>>> answer_label("CCCC[C@H]1OB(O)C[C@H]2C1=C(COC)C[C@H]1C(=O)N(C)C(=O)[C@H]12")
"criterion not met"
>>> answer_label("CCCC[C@@H]1C[C@H]1[C@@H](NC(=O)c1ccco1)c1ccc(-c2ccccc2)cc1")
"criterion not met"
>>> answer_label("COC(=O)[C@]1(CCC(=O)OC(C)(C)C)N=C(c2ccc(OCCCO)cc2)O[C@@H]1c1ccccc1CN=[N+]=[N-]")
"criterion not met"
>>> answer_label("CCC[C@@H]1C[C@@]1(CCC)[C@@H](NS(=O)(=O)c1cccc2cccnc12)c1ccc(Cl)cc1")
"criterion met"
>>> answer_label("C=C(CC1([C@@H](NP(=O)(c2ccccc2)c2ccccc2)[C@H]2C[C@@H]2CCCC)CC1)c1ccccc1")
"criterion not met"

Input line: Quick check: does CC(C)N1C(=O)C[C@@](C(=O)NCC(F)(F)F)(c2ccc([N+](=O)[O-])cc2)[C@H]1c1ccc(CO)cc1 have z-score greater than or equal to 1?
Output line: criterion met

Input line: Quick check: does NC(=O)NCC#Cc1ccc2c(c1)[C@]1(C(=O)N2)[C@H](c2ccccc2OCCO)N2[C@H](c3ccccc3)[C@H](c3ccccc3)OC(=O)[C@H]2[C@@H]1C(=O)Nc1nc2ccccc2s1 have z-score greater than or equal to 1?
Output line: criterion not met

Input line: Quick check: does CCCC#C[Si](O[C@H](CC)c1cn(Cc2cccc(Cl)c2)nn1)(C(C)C)C(C)C have z-score greater than or equal to 1?
Output line: criterion met

* * *

experiment: basal S. cerevisiae growth modulation, no modifier, primary screen, OD600, strain BY4716, 24 h, basal condition (AID 1173); conditions: OD600, 24 h, higher = more signal, called active from +8 up or from −8 down
Assign Satisfied whenever z-score does not fall below 0.8; assign Not satisfied whenever it does.

Answered cases to consult:
>>> answer_label("COc1ccc([Si](C)(C)[C@H]2[C@H](CCO)O[C@@]3(C(=O)N(Cc4ccc(N(C=O)c5ccccc5)cc4)c4ccccc43)[C@@H]2C)cc1")
"Satisfied"
>>> answer_label("NCCCCCNC(=O)[C@@H]1C[C@@H]2C(=O)N[C@@H](Cc3ccccc3)C(=O)N2[C@@H]1c1ccc(O)cc1")
"Not satisfied"
>>> answer_label("CCCC[C@@H]1C[C@H]1[C@@H](NC(=O)c1ccco1)c1ccc(-c2ccccc2)cc1")
"Satisfied"
>>> answer_label("C=C(COC)/C(=C/C[C@@H](OC(C)=O)c1ccc(OCCO)cc1)c1cnc2ccccc2c1")
"Not satisfied"
>>> answer_label("COC(=O)C(CC#Cc1ccc2c(c1)[C@]1(C(=O)N2)[C@H](C(=O)Nc2nc3ccccc3s2)[C@H]2C(=O)O[C@H](c3ccccc3)[C@H](c3ccccc3)N2[C@@H]1c1ccccc1OCCO)C(=O)OC")
"Satisfied"

Input line: Quick check: does C=C(CCCC)C(=O)CC[C@@H](OC(=O)c1ccccc1-c1ccccc1C(=O)O)c1ccc(OCCO)cc1 have z-score greater than or equal to 0.8?
Output line: Not satisfied
